meta.source: ChEMBL document CHEMBL3627673

- Assay method text: Stability of the compound in DMEM media assessed as compound remaining at 250 uM after 7 hrs by HPLC analysis
- Format: physicochemical
- Settings: read-out: Stability
Readout type: remaining at 7 h, 250 µM
Field note: include the unit after the figure.

(Q) What value of measured remaining at 7 h, 250 µM is listed for CC1=CC(=O)c2c(COC(N)=O)c3n(c2C1=O)C[C@H]1[C@@H]3N1C (stereo partly specified) ?
(A) 72%

----------
- Test system: HL-60
- Assay method text: Antiproliferative activity against human HL60 cells after 48 hrs by resazurin reduction assay
- Assay type: functional, cell-based
- Settings: HL-60, 48 h
Readout type: IC50 (nM)
Give bare numbers, in nM.

Compound	IC50 [nM]
CN1[C@@H]2c3c(COC(N)=O)c4c(n3C[C@@H]21)C(=O)C=CC4=O (stereo partly drawn)	2030
CC1=CC(=O)c2c(COC(N)=O)c3n(c2C1=O)C[C@H]1[C@@H]3N1C (stereo partly drawn)	30

From here, focus on the item given below.
(Q) Form field: reported IC50 of CO[C@@]12[C@H](COC(N)=O)C3=C(C(=O)C(C)=C(N)C3=O)N1C[C@@H]1N[C@@H]12
(A) 410
